Here the recorded EC50 is given for each entry.
ASSAY COMMENT: Trypanosoma cruzi growth suppression in host cells – NIH3T3 host cells, beta-gal luminescence, confirmation (AID 2044);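 note: intracellular parasites grown in NIH/3T3 mouse fibroblasts as host cells; luminescent beta-galactosidase reporter signal from transgenic T. cruzi replicating inside host cells; inhibitors lower the luminescence signal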
Assay type: functional, cell-based
Calls of active or inactive are those of the source.
REPORTED PROPERTY: EC50

INSERT INTO results (molecule, reported_property, reported) VALUES
  ('Cc1cc(C)c2c(N)c(C(=O)c3ccccc3)sc2n1', 'EC50', '225 nM (active)'),
  ('Cc1ccc(-n2cc(CNCCCn3ccnc3C)c(-c3ccc(F)cc3)n2)cc1', 'EC50', '1770 nM (active)'),
  ('O=[N+]([O-])c1nn(-c2ccc3c(c2)OCCO3)[n+]([O-])c1NCCC1=CCCCC1', 'EC50', '574 nM (active)'),
  ('O=C(NCCCN1CCOCC1)c1ccc(Sc2ccc(F)cc2)c([N+](=O)[O-])c1', 'EC50', '1010 nM (active)'),
  ('Cc1c(NC(=O)c2ccc(-c3ccc([N+](=O)[O-])cc3Cl)o2)c(=O)n(-c2ccccc2)n1C', 'EC50', '839 nM (active)'),
  ('Cc1[nH]c2c(ccc3ccccc32)c1C1C(CCN)C1(C)C (stereo unspecified)', 'EC50', '2560 nM (active)'),
  ('O=c1[nH]sc2ccccc12', 'EC50', '524 nM (active)'),
  ('O=C(NC1CCN(Cc2ccccc2)CC1)C1CCN(S(=O)(=O)c2ccccc2)CC1', 'EC50', '424 nM (active)'),
  ('O=C(Nc1cccc(F)c1)N1CC=C(c2ccc(Cl)cc2)CC1', 'EC50', '1480 nM (active)'),
  ('Cc1ccccc1C1c2[nH]c3ccccc3c2C[C@H]2C(=O)N(C3CCN(Cc4ccccc4)CC3)CC(=O)N12 (stereo partly specified)', 'EC50', '1980 nM (active)'),
  ('O=[N+]([O-])c1ccc(/C=N/NC(=S)Nc2ccc(Cl)cc2Cl)s1', 'EC50', '651 nM (active)');

###

ASSAY SYSTEM: UniProt Q9HC16
Sequence (Q9HC16 whole entry): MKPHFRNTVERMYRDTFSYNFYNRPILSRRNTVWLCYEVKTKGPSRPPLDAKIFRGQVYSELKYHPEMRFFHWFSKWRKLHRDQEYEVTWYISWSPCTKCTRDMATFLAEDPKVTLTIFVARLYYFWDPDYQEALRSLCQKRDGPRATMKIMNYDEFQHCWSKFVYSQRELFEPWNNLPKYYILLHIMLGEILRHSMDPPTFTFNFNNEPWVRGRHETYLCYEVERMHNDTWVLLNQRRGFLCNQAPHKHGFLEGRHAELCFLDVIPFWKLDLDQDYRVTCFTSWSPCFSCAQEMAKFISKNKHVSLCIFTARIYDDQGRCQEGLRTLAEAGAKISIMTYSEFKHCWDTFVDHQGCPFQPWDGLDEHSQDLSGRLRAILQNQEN
ASSAY COMMENT: Dose Response confirmation of small molecule APOBEC3G DNA Deaminase Inhibitors via a fluorescence-based single-stranded DNA deaminase assay. [Related pubchem assays (depositor defined):AID493012, AID493028]
Assay type: functional
Activity calls are given as the source filed them.
Outcomes: active, inactive

INSERT INTO measurements (compound, assay_system, label_value) VALUES
  ('Nc1ccccc1SC(C[N+](=O)[O-])c1ccccc1 (centres undefined)', 'UniProt Q9HC16', 'active'),
  ('COc1cc(/C=N/n2c(S)nnc2-c2ccccc2)cc(OC)c1O', 'UniProt Q9HC16', 'inactive'),
  ('O=c1c2cc(F)ccc2sn1-c1ccccc1', 'UniProt Q9HC16', 'active'),
  ('Sc1nnc(-c2ccccn2)n1/N=C/c1ccc(Cl)cc1', 'UniProt Q9HC16', 'active');

###

ASSAY SYSTEM: UniProt:Q9H0H5
Sequence (Q9H0H5 whole entry): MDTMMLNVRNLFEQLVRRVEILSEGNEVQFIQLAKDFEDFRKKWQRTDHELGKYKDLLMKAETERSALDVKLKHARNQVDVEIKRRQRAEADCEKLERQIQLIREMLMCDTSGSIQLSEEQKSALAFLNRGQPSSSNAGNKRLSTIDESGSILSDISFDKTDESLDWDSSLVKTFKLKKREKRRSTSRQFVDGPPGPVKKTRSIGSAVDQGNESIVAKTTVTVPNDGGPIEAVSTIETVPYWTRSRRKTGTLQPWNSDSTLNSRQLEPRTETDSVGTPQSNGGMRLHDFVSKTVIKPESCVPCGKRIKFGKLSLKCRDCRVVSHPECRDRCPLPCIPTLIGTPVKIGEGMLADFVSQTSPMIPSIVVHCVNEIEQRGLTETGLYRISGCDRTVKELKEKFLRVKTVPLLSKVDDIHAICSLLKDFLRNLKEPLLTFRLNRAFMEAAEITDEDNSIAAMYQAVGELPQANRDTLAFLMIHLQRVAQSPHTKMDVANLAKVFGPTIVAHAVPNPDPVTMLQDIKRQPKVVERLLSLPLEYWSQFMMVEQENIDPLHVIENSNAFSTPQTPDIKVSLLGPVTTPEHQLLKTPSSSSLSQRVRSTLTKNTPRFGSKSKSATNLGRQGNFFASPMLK
ASSAY COMMENT: blockers of MgcRacGAP-driven Rac1 GTP hydrolysis – biochemical, ADP Hunter fluorescence, primary and confirmatory, confirmation (AID 624330)
Format: functional
Active and inactive are the calls of the source.
REPORTED PROPERTY: IC50

INSERT INTO assay_data (compound, assay_system, reported) VALUES
  ('CCOC(=O)Nc1ccc(OC(=O)Oc2ccc(NC(=O)OCC)cc2)cc1', 'UniProt:Q9H0H5', '31.8 µM (active)'),
  ('COc1ccc(NC(C)c2cc(Cl)ccc2O)cc1 (centres undefined)', 'UniProt:Q9H0H5', '69.1 µM (active)'),
  ('Cc1[nH]n(-c2cccc(Cl)c2)c(=O)c1-c1ccc(Cl)cc1', 'UniProt:Q9H0H5', '80 µM (active)'),
  ('Cc1cccc(Nc2nnc(S)s2)c1C', 'UniProt:Q9H0H5', '67.2 µM (active)'),
  ('S=C(NCCN1CCOCC1)Nc1ccc(Nc2ccccc2)cc1', 'UniProt:Q9H0H5', '129 µM (active)'),
  ('COc1cc(/C=N/Nc2nc3ccccc3s2)ccc1O', 'UniProt:Q9H0H5', '69.6 µM (active)'),
  ('O=[N+]([O-])c1c(O)nc(/C=C\c2ccc(O)cc2)nc1O', 'UniProt:Q9H0H5', '50.6 µM (active)'),
  ('COc1ccc(CN2CCN(Cc3ccc(Br)cc3)CC2)c(OC)c1OC', 'UniProt:Q9H0H5', '70.2 µM (active)'),
  ('Cc1c(C(=O)N/N=C/c2ccc(O)c(Br)c2)sc(N)c1C#N', 'UniProt:Q9H0H5', '97.3 µM (active)');

Source: ChEMBL document CHEMBL1201862
